Consider the following binders and their measured kon readings.
SYSTEM: T1, Human ST2 (human, UniProt Q01638 19-328, limits assumed)
T1 construct: also called human ST2 protein; Interleukin 1 receptor-like 1
T1 sequence (looked up): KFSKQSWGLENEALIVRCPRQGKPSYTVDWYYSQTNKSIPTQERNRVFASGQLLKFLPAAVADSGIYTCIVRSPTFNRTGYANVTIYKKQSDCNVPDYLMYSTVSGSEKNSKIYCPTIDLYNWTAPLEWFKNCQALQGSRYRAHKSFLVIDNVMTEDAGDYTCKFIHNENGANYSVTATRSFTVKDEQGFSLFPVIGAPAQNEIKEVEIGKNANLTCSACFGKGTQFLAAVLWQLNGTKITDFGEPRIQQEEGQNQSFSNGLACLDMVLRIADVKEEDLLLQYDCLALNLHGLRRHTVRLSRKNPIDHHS
TEST_DESCRIPTION: SPR (Carterra), antibody immobilized, ST2 analyte
Write the number in M⁻¹ s⁻¹ without appending the unit.

Example binders with recorded kon:
Read the entry Human ST2 IgG1 Antibody 38 (antibody, V domains shown, IgG1; also called ST2 Antibody 38) VH: QVQLVQSGAEVKKPGSSVKVSCKASGGTFSSYAISWVRQAPGQGLEWMGTIIPMFGIADYAQKFQGRVTITADESTSTAYMELSSLRSEDTAVYYCARSSRSSSWYNWYFDLWGRGTLVTVSS VL: EIVMTQSPATLSVSPGERATLSCRASQSISSSYLAWYQQKPGQAPRLLIYGASTRATGIPARFSGSGSGTEFTLTISSLQSEDFAVYYCQQYYTTPWTFGQGTKVEIKR and write its reported kon.
310000

Read the entry Human ST2 IgG1 Antibody 51 (antibody, V domains shown, IgG1; also called ST2 Antibody 51) VH: QVQLVQSGAEVKKPGSSVKVSCKASGGSFSRSSISWVRQAPGQGLEWMGGIIPIFGAPVYAQDLQGRVTITADESTSTAYMELSSLRSEDTAVYYCARDHPHCSSTSCYYGMDVWGQGTTVTVSS VL: EIVMTQSPATLSVSPGERATLSCRASQTISSSYLAWYQQKPGQAPRLLIYGASTRATGIPARFSGSGSGTEFTLTISSLQSEDFAVYYCQQYGSSPLTFGGGTKVEIKR and write its reported kon.
280000

Now for the binder whose kon we want.
Read the entry Human ST2 IgG1 Antibody 37 (antibody, V domains shown, IgG1; also called ST2 Antibody 37) VH: EVQLLESGGGLVQPGGSLRLSCAASGFTFTDAWMNWVRQAPGKGLEWVSTISVSVGVTYYADSVKGRFTISRDNSKNTLYLQMNSLRAEDTAVYYCATIGSMATIRKGATDAFDIWGQGTLVTVSS VL: DIQMTQSPSSLSASVGDRVTITCRASQRINSYLNWYQQKPGKAPKLLIYAASTLQSGVPSRFSGSGSGTDFTLTISSLQPEDFATYYCQQSYSTPPTFGGGTKVEIKR and write its reported kon.
620000

From: patent US20210403579A1
